Test system: miR-122a
assay: Melting temperature (Tm) of LNA anti-miR/miR-122a RNA duplex
Assay type: physicochemical, human
experimental-parameters: Table 2; towards synthetic miR-122a RNA oligonucleotide with phosphorothioate linkages; PS backbone
Protocol: The melting temperatures were assessed towards the mature miR-122a sequence, using a synthetic miR-122a RNA oligonucleotide with phosphorothioate linkaged. […] Following RT incubation Tm was measured on Lambda 40 UV/VIS Spectrophotometer with peltier temperature progammer PTP6 using PE Templab software (Perkin Elmer). […]
Strand notation (5' to 3'): a small letter for the sugar, then the base; units joined by * are phosphorothioate-linked, units joined directly phosphodiester-linked; [ ] holds rarer units or linkages, { } end groups; capitals alone tell only the bases. l = locked nucleic acid (LNA); [5mC] = 5-methylcytosine; d = 2'-deoxy (DNA)
endpoint: Tm (° C.) (°C)
Use °C as the unit, but write only the number.

>>> assay_result("5′-cCatTgtCacActCca-3′ (antisense dC*l[5mC]*dA*dT*lT*dG*dT*l[5mC]*dA*dC*lA*dC*dT*l[5mC]*dC*dA) [SEQ ID NO: 60]")
75
>>> assay_result("5′-ccAttGtcTcaAtcCa-3′ (antisense dC*dC*lA*dT*dT*lG*dT*dC*lT*dC*dA*lA*dT*dC*l[5mC]*dA) [SEQ ID NO: 65, reference compound]")
46

Now for a further substance.
Req: Given 5′-CcAttCTgaCcCtAC-3′ (antisense l[5mC]*dC*lA*dT*dT*l[5mC]*lT*dG*dA*l[5mC]*dC*l[5mC]*dT*lA*l[5mC]) [SEQ ID NO: 64, reference compound] , report its Tm (° C.) on miR-122a.
Resp: 32
